Cited source: patent US20260144882A1

Quick reference for pKd among some binders
- experimental system: T1, human Nectin-4 extracellular antigen hNectin-4-His (human, UniProt Q96NY8 32-349)
- T1 construct: C-terminal 8xHis tag included
- T1 sequence: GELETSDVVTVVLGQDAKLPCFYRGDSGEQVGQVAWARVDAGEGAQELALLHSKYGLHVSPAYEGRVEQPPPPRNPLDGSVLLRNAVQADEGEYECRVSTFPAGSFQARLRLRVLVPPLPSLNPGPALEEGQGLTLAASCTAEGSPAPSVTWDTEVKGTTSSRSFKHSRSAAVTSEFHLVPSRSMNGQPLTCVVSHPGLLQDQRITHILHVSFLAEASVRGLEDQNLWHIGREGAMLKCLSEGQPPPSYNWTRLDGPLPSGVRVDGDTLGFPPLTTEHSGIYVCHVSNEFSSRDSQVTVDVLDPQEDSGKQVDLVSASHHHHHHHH
- assay method text: SPR, antibody on Protein A chip, 1:1 fit
Hey, just a heads up that pKd is the negative log base 10 of the concentration in molar.

Some solved cases for reference:
antibody 1F3-1A9 (antibody, human IgG1, kappa, V domains shown) VH: EVQLVESGGGLVQPGGSLRLSCAASGYSFDNYAMSWVRQAPGKGLEWVSRISPTGGYASYADSVKGRFTISRDNSKNTLYLQMNSLRAEDTAVYYCARAELLAFDVYTASDYWGQGTLVTVSS VL: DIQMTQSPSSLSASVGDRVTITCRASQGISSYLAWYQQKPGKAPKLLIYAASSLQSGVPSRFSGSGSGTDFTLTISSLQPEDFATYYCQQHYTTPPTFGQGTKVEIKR = 9.19
antibody 1F3-2E8 (antibody, human IgG1, kappa, V domains shown) VH: EVQLVESGGGLVQPGGSLRLSCAASGYSFSDYGMSWVRQAPGKGLEWVSWISPSKGSASYADSVKGRFTISRDNSKNTLYLQMNSLRAEDTAVYYCARAELLAFDVYTASDYWGQGTLVTVSS VL: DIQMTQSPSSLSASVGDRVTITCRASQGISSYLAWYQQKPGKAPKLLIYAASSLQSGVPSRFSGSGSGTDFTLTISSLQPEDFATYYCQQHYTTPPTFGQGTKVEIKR = 9.06

Query :: // returns reported pKd for input antibody 1F3-1G11 (antibody, human IgG1, kappa, V domains shown) VH: EVQLVESGGGLVQPGGSLRLSCAASGYSFTGYGMSWVRQAPGKGLEWVSGISPSGGTIGYADSVKGRFTISRDNSKNTLYLQMNSLRAEDTAVYYCARAELLAFDVYTASDYWGQGTLVTVSS VL: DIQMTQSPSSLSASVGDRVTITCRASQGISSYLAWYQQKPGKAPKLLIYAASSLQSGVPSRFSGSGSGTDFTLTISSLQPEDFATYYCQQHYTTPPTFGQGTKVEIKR
Result :: 9.09

Query :: I am curious: what pKd value has been reported for antibody 1G8-1E10 (antibody, human IgG1, kappa, V domains shown) VH: EVQLVESGGGLVQPGGSLRLSCAASGDSFSTYAMSWVRQAPGKGLEWVSRISGSGDGKDYADSVKGRFTISRDNSKNTLYLQMNSLRAEDTAVYYCARQTEDRSYGYDLDYWGQGTLVTVSS VL: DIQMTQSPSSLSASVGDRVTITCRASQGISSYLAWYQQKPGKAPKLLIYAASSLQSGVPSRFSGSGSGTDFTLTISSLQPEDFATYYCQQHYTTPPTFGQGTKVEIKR ?
Result :: 8.88

Query :: Field request: pKd | item: antibody 10F4-2C12 (antibody, human IgG1, kappa, V domains shown) VH: EVQLVESGGGLVQPGGSLRLSCAASGYNFGDYSMSWVRQAPGKGLEWVSVIDTTSAYTRYADSVKGRFTISRDNSKNTLYLQMNSLRAEDTAVYYCAREYSDVVDYVSVRTPLDYWGQGTLVTVSS VL: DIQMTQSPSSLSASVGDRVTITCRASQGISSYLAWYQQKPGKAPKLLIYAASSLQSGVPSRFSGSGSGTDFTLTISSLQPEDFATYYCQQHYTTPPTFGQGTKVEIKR
Result :: 9.27
